- targetOrTestSystem: human ether-à-go-go-related gene (hERG) potassium channel (human);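 also: peak tail current of the secondary pulse compared with the same well before compound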
- Sequence (Q12809 whole entry, looked up): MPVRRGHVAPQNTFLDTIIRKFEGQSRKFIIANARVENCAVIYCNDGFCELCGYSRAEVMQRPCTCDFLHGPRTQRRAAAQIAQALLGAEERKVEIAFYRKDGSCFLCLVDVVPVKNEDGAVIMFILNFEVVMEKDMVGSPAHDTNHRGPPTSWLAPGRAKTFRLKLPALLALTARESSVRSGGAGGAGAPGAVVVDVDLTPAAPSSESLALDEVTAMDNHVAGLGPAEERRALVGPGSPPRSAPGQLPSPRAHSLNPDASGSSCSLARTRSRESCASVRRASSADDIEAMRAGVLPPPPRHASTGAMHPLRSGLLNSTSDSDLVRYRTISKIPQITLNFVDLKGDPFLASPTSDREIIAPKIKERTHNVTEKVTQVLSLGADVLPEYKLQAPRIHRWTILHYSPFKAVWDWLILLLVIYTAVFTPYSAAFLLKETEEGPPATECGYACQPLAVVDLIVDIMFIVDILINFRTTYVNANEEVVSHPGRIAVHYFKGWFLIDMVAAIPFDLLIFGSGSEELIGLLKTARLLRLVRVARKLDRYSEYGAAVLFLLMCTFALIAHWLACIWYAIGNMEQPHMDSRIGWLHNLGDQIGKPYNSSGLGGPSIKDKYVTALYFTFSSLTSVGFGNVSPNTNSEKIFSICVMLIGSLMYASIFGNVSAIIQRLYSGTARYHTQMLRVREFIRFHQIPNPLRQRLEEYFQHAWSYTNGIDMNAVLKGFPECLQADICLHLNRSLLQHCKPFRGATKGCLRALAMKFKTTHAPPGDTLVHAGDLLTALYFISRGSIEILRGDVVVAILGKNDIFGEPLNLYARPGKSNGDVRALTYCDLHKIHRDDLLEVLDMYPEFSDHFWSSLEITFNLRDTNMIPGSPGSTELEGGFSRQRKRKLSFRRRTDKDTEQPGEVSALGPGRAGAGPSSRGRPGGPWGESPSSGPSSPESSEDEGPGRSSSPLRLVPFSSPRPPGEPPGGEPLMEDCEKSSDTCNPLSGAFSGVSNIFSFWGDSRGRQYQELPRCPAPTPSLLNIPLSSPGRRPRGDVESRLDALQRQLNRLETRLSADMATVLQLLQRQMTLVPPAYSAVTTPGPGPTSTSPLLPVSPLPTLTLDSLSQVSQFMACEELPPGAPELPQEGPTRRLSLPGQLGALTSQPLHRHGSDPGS
- assayText: primary screen, population patch clamp on CHO cells stably expressing hERG; higher = less effect of the substance
- Method: Briefly, Chinese hamster ovary (CHO) cells stably expressing the hERG channel were dislodged from tissue culture flasks and dispensed into PPC plates. […] During the recording, background leak currents were estimated by a 100 ms step to -80 mV from an initial holding potential of -70 mV and subtracted from the subsequent current measurement. The campaign was conducted in two phases using slight differences in recording protocol. […]
The whole screen tested about 310,000 compounds, of which about 14,000 (4.5%) showed an effect of 50% or more. The effect is printed as a negative number. The sample holds strong results, similar compounds and a random draw of the others, so the mix is not that of the screen.
readoutType: hERG current change (%, negative = inhibition) at 10uM (%)
Give just the numeric value; % need not be written.

The cases that follow already have their hERG current change (%, negative = inhibition) at 10uM on record.
O=C(N/N=C1/SCC(=O)N1Cc1ccco1)c1ccccc1F ... 20.1
C=CCOC(=O)C1=C(C)NC(=O)NC1c1ccc2c(c1)OCO2 (centres unmarked) ... -11.9
COc1ccc(C2CC(=O)c3cnn(-c4nc(C)cc(C)n4)c3C2)cc1OC (centres unmarked) ... -4.84

Please state recorded hERG current change (%, negative = inhibition) at 10uM (tested on human ether-à-go-go-related gene (hERG) potassium channel (human)) of COc1ccccc1C(=O)NNC(=O)c1nn(Cc2ccccc2)c(=O)c2ccccc12;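 also: peak tail current of the secondary pulse compared with the same well before compound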
-14

Input CC1CCCCC1NC(=O)CCNC(=O)N1CC(=O)Nc2ccccc21 (centres unmarked)
10.5
